- assayOverview: in vivo
- condition: athymic nude Foxn1, mouse, iv, 20 umol, total radioactivity, Biodistribution Kidneys
Items are presented alongside their recorded tissue uptake at 4 h.
Please reply with the bare figure in %ID/g and do not write the unit itself.

INSERT INTO assay_data (compound, measuredproperty, observedvalue) VALUES
  ('C[C@@H](O)[C@@H]1NC(=O)[C@H](CCCCN)NC(=O)[C@@H](Cc2ccc(NC(N)=O)cc2)NC(=O)[C@H](Cc2ccc(O)cc2)NC(=O)[C@H](NC(=O)[C@H](Cc2ccc(Cl)cc2)NC(=O)CC[C@H](C(=O)O)N2CCN(CC(=O)O)CCN(CC(=O)O)CC2)CSSC[C@@H](C(=O)N[C@H](Cc2ccc(O)cc2)C(N)=O)NC1=O [[^61Cu]Cu-(R)-NODAGA-LM3, metal not drawn]', 'tissue uptake at 4 h', 3.87);

Supply reported tissue uptake at 4 h belonging to this compound: C[C@@H](O)[C@@H]1NC(=O)[C@H](CCCCN)NC(=O)[C@@H](Cc2ccc(NC(N)=O)cc2)NC(=O)[C@H](Cc2ccc(O)cc2)NC(=O)[C@H](NC(=O)[C@H](Cc2ccc(Cl)cc2)NC(=O)CCC(C(=O)O)N2CCN(CC(=O)O)CCN(CC(=O)O)CC2)CSSC[C@@H](C(=O)N[C@H](Cc2ccc(O)cc2)C(N)=O)NC1=O (some centres unmarked) [[^61Cu]Cu-NODAGA-LM3, metal not drawn]
4.59

###

- System: HT-1080.hFAP and HT-1080.wt xenografts
- assayOverview: Quantitative biodistribution in HT-1080.hFAP and HT-1080.wt xenografted mice
- Format: in vivo
- condition: FAP-positive tumor, 1 hour p.i.
measuredProperty: Biodistribution HT-1080.hFAP (% I.A./g)

Answered cases to consult:
INSERT INTO measurements (compound, observedvalue) VALUES
  ('CN(C(=O)CCC(=O)N1CCN(C(=O)CC[C@H](C(=O)O)N2CCN3CCN(CC2)CC(=O)[O][61Cu][O]C(=O)C3)CC1)c1ccc2nccc(C(=O)NCC(=O)N3CC(F)(F)C[C@H]3C#N)c2c1 [[^61Cu]Cu-NODAGA-F4]', 7.4),
  ('N#C[C@@H]1CC(F)(F)CN1C(=O)CNC(=O)c1ccnc2ccc(NC(=O)CCC(=O)NCCNC(=O)CC[C@H](C(=O)O)N3CCN4CCN(CC3)CC(=O)[O][61Cu][O]C(=O)C4)cc12 [[^61Cu]Cu-NODAGA-F1]', 12.6);

P: CN(C(=O)CCC(=O)NCCNC(=O)CC[C@H](C(=O)O)N1CCN2CCN(CC1)CC(=O)[O][61Cu][O]C(=O)C2)c1ccc2nccc(C(=O)NCC(=O)N3CC(F)(F)C[C@H]3C#N)c2c1 [[^61Cu]Cu-NODAGA-F2]
Q: N#C[C@@H]1CC(F)(F)CN1C(=O)CNC(=O)c1ccnc2ccc(NC(=O)CCC(=O)N3CCN(C(=O)CC[C@H](C(=O)O)N4CCN5CCN(CC4)CC(=O)[O][61Cu][O]C(=O)C5)CC3)cc12 [[^61Cu]Cu-NODAGA-F3]
So which one has the bigger Biodistribution HT-1080.hFAP here, P or Q ? // respond with label for picked entry
Q

###

- System: HT-1080.hFAP and HT-1080.wt xenografts
- assayOverview: Quantitative biodistribution in HT-1080.hFAP and HT-1080.wt xenografted mice
- Format: in vivo
- condition: 4 h p.i., HT-1080.hFAP and HT-1080.wt xenografts
- Description: The tumors were allowed to grow to an average volume of 100-200 mm3. Biodistribution Studies: The xenografted mice were randomized (n=5 per group) and injected intravenously via the tail vein with the ^61Cu-labeled radioligands (100 μL, […], 0.8-1MBq). Mice were euthanized 1h and 4h pi. by CO2 asphyxiation. Organs of interest and blood were collected, rinsed of excess blood, blotted dry, weighed, and counted in a 7-counter. […]
measuredProperty: Biodistribution Intestine (% IA/g)

Below, 2 molecules whose answers are already recorded.
INSERT INTO assay_data (molecule, measuredproperty, unitstext, observedvalue) VALUES
  ('CN(C(=O)CCC(=O)N1CCN(C(=O)CC[C@H](C(=O)O)N2CCN3CCN(CC2)CC(=O)[O][61Cu][O]C(=O)C3)CC1)c1ccc2nccc(C(=O)NCC(=O)N3CC(F)(F)C[C@H]3C#N)c2c1 [[^61Cu]Cu-NODAGA-F4]', 'Biodistribution Intestine', '% IA/g', 0.3),
  ('N#C[C@@H]1CC(F)(F)CN1C(=O)CNC(=O)c1ccnc2ccc(NC(=O)CCC(=O)N3CCN(C(=O)CC[C@H](C(=O)O)N4CCN5CCN(CC4)CC(=O)[O][61Cu][O]C(=O)C5)CC3)cc12 [[^61Cu]Cu-NODAGA-F3]', 'Biodistribution Intestine', '% IA/g', 0.4);

P: CN(CCCN1CCN(C(=O)CCC(C(=O)O)N2CCN3CCN(CC2)CC(=O)[O][61Cu][O]C(=O)C3)CC1)c1ccc2nccc(C(=O)NCC(=O)N3CC(F)(F)C[C@H]3C#N)c2c1 (some centres unmarked) [[^61Cu]Cu-NODAGA-FAPI-46]
Q: CN(C(=O)CCC(=O)NCCNC(=O)CC[C@H](C(=O)O)N1CCN2CCN(CC1)CC(=O)[O][61Cu][O]C(=O)C2)c1ccc2nccc(C(=O)NCC(=O)N3CC(F)(F)C[C@H]3C#N)c2c1 [[^61Cu]Cu-NODAGA-F2]
R: N#C[C@@H]1CC(F)(F)CN1C(=O)CNC(=O)c1ccnc2ccc(NC(=O)CCC(=O)NCCNC(=O)CC[C@H](C(=O)O)N3CCN4CCN(CC3)CC(=O)[O][61Cu][O]C(=O)C4)cc12 [[^61Cu]Cu-NODAGA-F1]
Hi! Can you put these in order of Biodistribution Intestine, lowest number first? Your answer should be the labels, listed in the requested order.
Q, P, R
